assay: soluble on expression in E. coli; label from the status in PepcDB or PDB records

- Seq Text: "MDGQTLHAWAKRFALELPFTEHCWPFGPQYDVFKVGGKIFMLFTEHHCRPVVNLKSDPQKSLVNQQIYPSIAPGYHMNKKHWISVYAGEDITVSLLNDLINDSWNLVVDGLPKREQLRLRPR"
  soluble on expression in E. coli: "not soluble"
- Seq Text: "MKDWFMNLLYYLKRPFIRLSRFRYRCGYGVHSPFAFSLITDVIYEKMPYYAYDLLKVEQKKRITTQRWEKGIPRINRLLFRLVNKVQPATIIEVGQPSAASLYLQSAKPSAGYLFASDLSELFLDADTPVDFLYLNDYRNPALLEEVFNICSRRTTPNSLFVVHGICYSKAMKNLWKQLQNDERVGITFDLYDAGLLFFDTTKIKQHYIVNF"
  soluble on expression in E. coli: "not soluble"
